Where do the numbers come from? From ChEMBL document CHEMBL4765292.

Entries and their selectivity ratio values follow.
assay: Therapeutic index, ratio of IC50 for African green monkey Vero cells to IC50 for Plasmodium falciparum TM4/8.2; type: toxicity; conditions: against Plasmodium falciparum TM4/8.2, read-out: Ratio IC50
Lab note: write the figure by itself, no unit.

For orientation, consider the following solved cases.
- compound: "CC1(C)NC(N)=NC(=N)N1OCCc1ccccc1"
  measurementName: "selectivity ratio"
  resultValue: 400
- compound: "CC1(C)N=C(N)N=C(N)N1OCCCOc1cccc(Cl)c1Cl"
  measurementName: "selectivity ratio"
  resultValue: 27700
- compound: "CC1(C)N=C(N)N=C(N)N1OCCCOc1ccccc1"
  measurementName: "selectivity ratio"
  resultValue: 90000
- compound: "CC1(C)N=C(N)N=C(N)N1OCCCOc1ccc(F)cc1Cl"
  measurementName: "selectivity ratio"
  resultValue: 629000
- compound: "CC1(C)N=C(N)N=C(N)N1OCCSc1ccc(Cl)cc1"
  measurementName: "selectivity ratio"
  resultValue: 4000

Record CC1(C)N=C(N)N=C(N)N1OCCCSc1cccc(Cl)c1 , field selectivity ratio: 3000

Record CC1(C)N=C(N)N=C(N)N1OCCCSc1ccccc1Cl , field selectivity ratio: 30400

Record NC1=NC(c2ccccc2)N(OCCCOc2cc(Cl)c(Cl)cc2Cl)C(N)=N1 (centres undefined) , field selectivity ratio: 4920

Record CC1(C)N=C(N)N=C(N)N1OCCCc1ccccc1 , field selectivity ratio: 772

Record CC1(C)NC(N)=NC(=N)N1OCCCCOc1ccccc1 , field selectivity ratio: 3380

====

tested on: DHFR (human against Plasmodium falciparum DHFR N51I/C59R/S108N/I164L mutant); assay: Selectivity index, ratio of Ki for human DHFR expressed in Escherichia coli BL21 to Ki for Plasmodium falciparum DHFR N51I/C59R/S108N/I164L mutant expressed in Escherichia coli BL21; format: toxicity; conditions: read-out: Ratio Ki
measurementName: selectivity ratio
Lab note: write the figure by itself, no unit.

For orientation, consider the following solved cases.
- compound: "CC1(C)N=C(N)N=C(N)N1OCCCOc1cccc(Cl)c1Cl"
  experimentalTarget: "DHFR (human against Plasmodium falciparum DHFR N51I/C59R/S108N/I164L mutant)"
  selectivity ratio: 21
- compound: "CC1(C)N=C(N)N=C(N)N1OCCCOc1ccc(F)cc1Cl"
  experimentalTarget: "DHFR (human against Plasmodium falciparum DHFR N51I/C59R/S108N/I164L mutant)"
  selectivity ratio: 31
- compound: "CC1N=C(N)N=C(N)N1OCCCOc1cccc(Cl)c1Cl (centres undefined)"
  experimentalTarget: "DHFR (human against Plasmodium falciparum DHFR N51I/C59R/S108N/I164L mutant)"
  selectivity ratio: 16

Record CCN(CC)CCCON1C(N)=NC(N)=NC1(C)C , field selectivity ratio: 29

Record Cc1ccc(C)c(NCCCON2C(N)=NC(N)=NC2(C)C)c1 , field selectivity ratio: 33

====

assay: Therapeutic index, ratio of IC50 for African green monkey Vero cells to IC50 for Plasmodium falciparum K1CB1 harboring DHFR […] mutant; type: toxicity; details: read-out: Ratio IC50
// classify(record): look up selectivity ratio in ranges low bracket: < 600; middle bracket: ≥ 600 and < 3000; high bracket: ≥ 3000

Which bin, given its selectivity ratio, does CN(CCCON1C(N)=NC(N)=NC1(C)C)c1ccc(Cl)c(Cl)c1 occupy?
middle bracket

Which bin, given its selectivity ratio, does CC1(C)N=C(N)N=C(N)N1OCCSc1ccc(Cl)cc1 occupy?
low bracket

Which bin, given its selectivity ratio, does CC1(C)N=C(N)N=C(N)N1OCCCOc1ccccc1 occupy?
high bracket

Which bin, given its selectivity ratio, does CC1(C)NC(N)=NC(=N)N1OCCCSc1ccccc1 occupy?
high bracket

Which bin, given its selectivity ratio, does CC1N=C(N)N=C(N)N1OCCCOc1cc(Cl)c(Cl)cc1Cl (centres undefined) occupy?
middle bracket

Which bin, given its selectivity ratio, does CC1(C)N=C(N)N=C(N)N1OCCCOc1cccc(Cl)c1Cl occupy?
high bracket

Which bin, given its selectivity ratio, does CC1(C)NC(N)=NC(=N)N1OCCc1ccccc1 occupy?
low bracket

Which bin, given its selectivity ratio, does CC1N=C(N)N=C(N)N1OCCCOc1ccc(F)cc1Cl (centres undefined) occupy?
high bracket

Which bin, given its selectivity ratio, does CC1(C)NC(N)=NC(=N)N1OCCCCOc1ccccc1 occupy?
low bracket

Which bin, given its selectivity ratio, does CC1N=C(N)N=C(N)N1OCCCOc1cccc(Cl)c1Cl (centres undefined) occupy?
middle bracket

Which bin, given its selectivity ratio, does CC1(C)N=C(N)N=C(N)N1OCCCSc1ccccc1Cl occupy?
high bracket

Which bin, given its selectivity ratio, does CC1(C)N=C(N)N=C(N)N1OCCCOc1ccc(Cl)cc1 occupy?
low bracket

Which bin, given its selectivity ratio, does CC1(C)N=C(N)N=C(N)N1OCCCOc1ccc(F)cc1Cl occupy?
high bracket

Which bin, given its selectivity ratio, does CC1(C)N=C(N)N=C(N)N1OCCCNc1ccc(Cl)c(Cl)c1 occupy?
high bracket
